Values compiled from patent US20170224836A1.

Field: percent inhibition at 1.22 nM ADC, NCIH661 cells. Provide a value for each of the binders that follow.
MEASURED_TARGET: T1, human CDH6 on cells (human, UniProt P55285 54-790)
T1 sequence: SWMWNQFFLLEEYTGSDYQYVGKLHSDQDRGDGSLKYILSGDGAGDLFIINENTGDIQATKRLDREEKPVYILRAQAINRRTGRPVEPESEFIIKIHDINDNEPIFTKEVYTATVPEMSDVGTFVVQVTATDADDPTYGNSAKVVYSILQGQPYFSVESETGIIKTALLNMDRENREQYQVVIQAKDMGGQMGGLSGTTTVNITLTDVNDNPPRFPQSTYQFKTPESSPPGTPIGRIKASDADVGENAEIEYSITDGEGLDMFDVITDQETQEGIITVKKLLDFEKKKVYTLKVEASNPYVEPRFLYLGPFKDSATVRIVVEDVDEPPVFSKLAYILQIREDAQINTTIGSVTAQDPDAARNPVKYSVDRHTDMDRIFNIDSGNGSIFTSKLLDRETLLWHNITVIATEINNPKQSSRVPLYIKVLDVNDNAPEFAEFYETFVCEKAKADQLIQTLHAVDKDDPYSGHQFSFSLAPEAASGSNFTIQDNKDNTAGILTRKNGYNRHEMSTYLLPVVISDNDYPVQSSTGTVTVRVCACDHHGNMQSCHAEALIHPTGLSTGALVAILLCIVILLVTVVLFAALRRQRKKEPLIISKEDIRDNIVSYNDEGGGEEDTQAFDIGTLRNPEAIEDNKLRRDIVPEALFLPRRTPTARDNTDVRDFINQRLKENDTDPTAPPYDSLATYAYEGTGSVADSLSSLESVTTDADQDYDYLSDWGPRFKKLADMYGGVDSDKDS
ASSAY_PROCEDURE: cell-based or functional assay
Report as a plain number; the unit % is understood.

What percent inhibition at 1.22 nM ADC, NCIH661 cells value was documented for this binder, NOV0689-SMCC-DM1 (antibody, human IgG1, lambda, V domains shown, SMCC-DM1 on primary amines, sites not stated) VH: QVQLLESGGGLVQPGGSLRLSCAASGFTFSSFAMNWVRQAPGKGLEWVSVISSSGSNTNYADSVKGRFTISRDNSKNTLYLQMNSLRAEDTAVYYCARPSYFQAMDYWGQGTLVTVSS VL: DIVLTQPPSVSGAPGQRVTISCSGSSSNIGSNFVSWYQQLPGTAPKLLIYDNSNRPSGVPDRFSGSKSGTSASLAITGLQAEDEADYYCSSYDSFDHSWVFGGGTKLTVLG ? -0.53

Next entry: NOV0692-SMCC-DM1 (antibody, human IgG1, lambda, V domains shown, SMCC-DM1 on primary amines, sites not stated) VH: QVQLVESGGGLVKPGGSLRLSCAASGFTFSRYWMDWVRQAPGKGLEWVGRIKSKANGGITDYAAPVKGRFTISRDDSKNTLYLQMNSLKTEDTAVYYCARGMTFLGIWGQGTLVTVSS VL: DIELTQPPSVSVSPGQTASITCSGDSIGSKYAQWYQQKPGQAPVLVIYYNSERPSGIPERFSGSNSGNTATLTISGTQAEDEADYYCQSWDGQSTIRVFGGGTKLTVLG 14.8
